tested on: Yap3 (UniProt P38749)
Sequence: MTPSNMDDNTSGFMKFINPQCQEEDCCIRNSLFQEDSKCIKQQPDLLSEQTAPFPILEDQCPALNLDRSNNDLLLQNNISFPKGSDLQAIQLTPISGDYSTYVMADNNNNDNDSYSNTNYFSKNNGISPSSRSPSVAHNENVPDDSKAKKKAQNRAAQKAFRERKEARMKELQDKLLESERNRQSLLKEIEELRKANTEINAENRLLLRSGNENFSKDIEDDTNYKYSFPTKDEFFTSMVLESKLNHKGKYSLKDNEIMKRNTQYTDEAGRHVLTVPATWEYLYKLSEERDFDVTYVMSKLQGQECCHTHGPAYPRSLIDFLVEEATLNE
assay overview: PBM E-score (8-mer binding enrichment) (E-score (-0.5 to 0.5)); higher = stronger / more preferred TF binding
condition parameters: protein concentration: 100 nM; construct: GST-full length
Over roughly 33,000 sequences, “E-score (-0.5 to 0.5)” has its median near -0.0034; the highest 2% begin near 0.25. For the sample, the highest values were picked, then their nearest neighbours and some sequences at random.
Classification field: YES = PBM E-score at or over 0.1; NO = PBM E-score under 0.1.

Answer whether PBM E-score of CGAGCCAC is greater than or equal to 0.1.
NO

# bool: PBM E-score of CTATACTA >= 0.1
YES

Is it the case that ATATACAA has PBM E-score reaching or exceeding 0.1?
YES

hey, is PBM E-score for this one >= 0.1? CATTTATA
YES

Quick check: does AATTTATA have PBM E-score greater than or equal to 0.1?
YES

Item ACAATACG with PBM E-score of 0.1 or above?
NO

Is it the case that AAACCACC has PBM E-score reaching or exceeding 0.1?
NO

Hi, just wondering whether CTGAAATA shows PBM E-score of 0.1 or higher.
YES

Tell me whether PBM E-score is at least 0.1 here: ATATACAC
YES

Has GAAATACA a recorded PBM E-score greater than or equal to 0.1?
NO

Tell me whether PBM E-score is at least 0.1 here: AATGCAAC
YES

Does the sequence AATGCAAA have recorded PBM E-score that is 0.1 or more?
YES

For this sequence, is measured PBM E-score 0.1 or higher? CCGCTCGC
NO

Record ATAAAGTC ; criterion: PBM E-score no lower than 0.1. Met?
YES

Answer whether PBM E-score of AACAAGGG is greater than or equal to 0.1.
NO

Given AGAATACG , state whether its PBM E-score is at least 0.1.
NO

API: above_or_equal(metric=PBM E-score, cutoff=0.1) for item AAATTCGC
YES

Can AATGCGCA be said to have PBM E-score at or above 0.1?
YES

Reported PBM E-score at or above 0.1? ACAATACA
NO

All values here come from the supplement of paper PMC3334620.
